# particulars: in acetone, 323.2 K
assay-metric: solubility (mole fraction)
Lab note: record the figure alone, no unit after it.

Provide one value: measured solubility (mole fraction) of Clc1ccc2c(Cl)ccnc2c1
0.0954

---

# particulars: in acetonitrile, 318.1 K
assay-metric: solubility (mole fraction)
Kindly provide the number alone.

Please look at this molecule and report its solubility (mole fraction): Clc1ccc2c(Cl)ccnc2c1
0.0307

---

# particulars: in acetonitrile, 333.4 K
assay-metric: solubility (mole fraction)
The answer should be written as a number, with no unit following it.

Give solubility (mole fraction) for Clc1ccc2c(Cl)ccnc2c1
0.13

---

# particulars: in acetonitrile, 308.1 K
assay-metric: solubility (mole fraction)
Number, no unit, nothing else.

For the compound Clc1ccc2c(Cl)ccnc2c1 , give its reported solubility (mole fraction).
0.0127

---

# particulars: in THF, 303.2 K
assay-metric: solubility (mole fraction)
# output: bare number, no unit

Using the record for Clc1ccc2c(Cl)ccnc2c1 , state its measured solubility (mole fraction).
0.0701
